Each entry below carries its recorded inhibition at 1 µM.
Biological target: human GnRH receptor (Homo sapiens)
Construct: expressed in transfected cells; host or cells: HEK 293 (hGnRH-R/293, from Dr. Stuart Sealfon)
Sequence (P30968 whole entry): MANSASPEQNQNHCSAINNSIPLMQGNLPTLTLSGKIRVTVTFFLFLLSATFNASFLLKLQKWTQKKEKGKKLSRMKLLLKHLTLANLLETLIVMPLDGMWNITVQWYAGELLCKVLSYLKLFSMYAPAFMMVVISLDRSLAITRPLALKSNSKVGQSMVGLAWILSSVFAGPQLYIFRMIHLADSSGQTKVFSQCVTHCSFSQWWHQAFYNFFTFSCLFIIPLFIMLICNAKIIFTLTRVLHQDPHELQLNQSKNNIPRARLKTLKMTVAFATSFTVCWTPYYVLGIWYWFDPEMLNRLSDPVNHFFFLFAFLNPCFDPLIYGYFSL
Assay: Radioligand binding, 125I-GnRH-A displacement, membranes of HEK 293 cells with human GnRH receptor
Settings: 1 h, repeat of % Inhib. at 1 uM; read-out: Repeats @ 1 uM hGnRH
The response must be a number in % with no trailing unit.

Look over these answered cases.
1. Cc1cc2c(cc1Cc1ccc(C(=O)NCCc3ccc(O)c(O)c3)o1)C(C)(C)CCC2(C)C; -3
2. COc1ccc(CCNC(=O)c2ccc(Cc3cc4c(cc3C)C(C)(C)CCC4(C)C)o2)cc1 [drawing 1173]; 53
3. Cc1cc2c(cc1Cc1ccc(C(=O)NC(CO)[C@H](O)c3ccc([N+](=O)[O-])cc3)o1)C(C)(C)CCC2(C)C (some centres unmarked); -15
4. Cc1cc2c(cc1Cc1ccc(C(=O)NC(C)C(O)c3ccccc3)o1)C(C)(C)CCC2(C)C (centres unmarked); 14

Kindly consider the entry below.
Please give the measured inhibition at 1 µM for this molecule: Cc1cc2c(cc1Cc1ccc(C(=O)N(C)Cc3ccccc3)o1)C(C)(C)CCC2(C)C
4

* * *

Test: Metabolism rate, pmol/min/mg at 1 μM, rat male
Type: in vitro ADME
Details: 1 μM compound
Returns one of fulfilled or not fulfilled; fulfilled when Rat male pmol/min/mg 1 μM is >= 2000 pmol/min/mg.

1) Cc1cc2c(cc1Cc1ccc(C(=O)Nc3ccc4[nH]ccc4c3)o1)C(C)(C)CCC2(C)C [Compound 96]; not fulfilled
2) COc1cc(OC)c(NC(=O)c2ccc(Cc3cc(C(C)(C)C)ccc3C)o2)c(OC)c1 [Compound 200]; not fulfilled
3) Cc1cc2c(cc1Cc1ccc(C(=O)NCc3cccc(CNc4ccnc(NC[C@@H]5CCCO5)n4)c3)o1)C(C)(C)CCC2(C)C [Compound 136]; fulfilled

Next compound, please.
Hello, I need to know if Cc1cc2c(cc1Cc1ccc(C(=O)NCC3CCC(CNc4nccc(NCC5CCCO5)n4)CC3)o1)C(C)(C)CCC2(C)C (stereo not shown) [Compound 92] has measured Rat male pmol/min/mg 1 μM not below 2000 pmol/min/mg. Thanks!
not fulfilled

* * *

Target: human GnRH receptor (Homo sapiens)
Construct: expressed in transfected cells; host or cells: HEK 293 (hGnRH-R/293, from Dr. Stuart Sealfon)
Assay: Radioligand binding, 125I-GnRH-A displacement, membranes of HEK 293 cells with human GnRH receptor
Details: 1 uM; read-out: % Inhib. @ 1 uM hGnRH
EXPERIMENTAL_ENDPOINT: inhibition at 1 µM (%)
The response must be a number in % with no trailing unit.

Look over these answered cases.
1. Cc1cc2c(cc1Cc1ccc(C(=O)N(C)CCc3ccccc3)o1)C(C)(C)CCC2(C)C; 10
2. Cc1cc2c(cc1Cc1ccc(C(=O)NCCc3c[nH]c4ccccc34)o1)C(C)(C)CCC2(C)C [drawing 1012]; 78
3. CCN(CCNC(=O)c1ccc(Cc2cc3c(cc2C)C(C)(C)CCC3(C)C)o1)c1cccc(C)c1; 2
4. Cc1ccccc1CNC(=O)c1ccc(Cc2cc3c(cc2C)C(C)(C)CCC3(C)C)o1 [drawing 1097]; 84
5. Cc1cccc(CNC(=O)c2ccc(Cc3cc4c(cc3C)C(C)(C)CCC4(C)C)o2)c1 [drawing 1174]; 93
6. Cc1cc2c(cc1Cc1ccc(C(=O)NCc3cccc([N+](=O)[O-])c3)o1)C(C)(C)CCC2(C)C [drawing 1231]; 75

Kindly consider the entry below.
Entry CC(=O)C1CCN(C(=O)c2ccc(Cc3cc4c(cc3C)C(C)(C)CCC4(C)C)o2)CC1 , system human GnRH receptor (Homo sapiens): what inhibition at 1 µM was measured?
59
